Experiment: gradient 5% acetonitrile 3 min, to 50% in 2 min, to 85% in 15 min, held 3 min, 100 µL/min
Conditions: column: Zorbax Extend-C18 2.1 x 50 mm; eluents: water / acetonitrile, 0.1% formic acid
observed-property: RP-LC retention time (s)

compound_structure=CCn1ccc2sc(C)c(C(=O)NCc3ccccc3F)c2c1=O meas_value=818
compound_structure=COc1ccc(Cl)cc1NC(=O)Cn1ncc2c(c1=O)N(CC1CC1)C(=O)CS2 meas_value=878
compound_structure=Cc1nn(CCCC(=O)N2CCN(c3ccccn3)CC2)c(=O)c2noc(C)c12 meas_value=580
compound_structure=CCCC(=O)N1C[C@H]2C[C@H](C1)[C@H]1CCCC(=O)N1C2 meas_value=601
compound_structure=CCn1cnc(S(=O)(=O)N2CCC(C(=O)NCc3cccs3)CC2)c1 meas_value=658
compound_structure=O=C(CSc1nc(-c2ccccc2Cl)ns1)Nc1nccs1 meas_value=818
compound_structure=O=C(CN1C(=O)COc2ccc(C(=O)N3CCCC3)cc21)N1CCN(c2ccccc2)CC1 meas_value=718
compound_structure=O=C(Nc1nc2c(s1)CN(S(=O)(=O)c1ccccc1)CC2)c1ccoc1 meas_value=823

A. CCCCn1cnc2c(-c3ccccc3)cn(CC(=O)Nc3ccc(Cl)cc3)c2c1=O
B. O=C(NCc1ccco1)C1CCN(c2nnc(-c3ccccc3)o2)CC1
Problem: Compare the recorded RP-LC retention time of A and B ; state which is larger. Please reply using the label of the selected record.
Result: A
(A: 1120 s, B: 718 s)
